Target: S1P3 (human Endothelial Differentiation G-protein Coupled Receptor 3 (EDG3)) (Homo sapiens, UniProt Q99500)
Construct: expressed in transfected cells; host or cells: GeneBLAzer EDG3-Ga15-NFAT-bla HEK 293T cells
Sequence (Q99500 whole entry): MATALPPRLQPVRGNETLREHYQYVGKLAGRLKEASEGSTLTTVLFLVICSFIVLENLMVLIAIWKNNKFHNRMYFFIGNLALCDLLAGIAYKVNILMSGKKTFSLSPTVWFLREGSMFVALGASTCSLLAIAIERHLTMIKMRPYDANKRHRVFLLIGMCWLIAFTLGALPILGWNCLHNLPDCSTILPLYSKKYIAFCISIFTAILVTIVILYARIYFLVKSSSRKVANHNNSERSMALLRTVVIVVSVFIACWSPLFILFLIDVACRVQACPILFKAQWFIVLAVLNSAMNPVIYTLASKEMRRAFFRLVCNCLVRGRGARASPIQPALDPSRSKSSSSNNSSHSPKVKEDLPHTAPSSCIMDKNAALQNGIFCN
Assay: S1P3 GeneBlazer assay
Assay type: cell-based
Details: agonist, EDG3-Ga15-NFAT-bla HEK 293T cells, beta-lactamase FRET readout
pEC50: −log10 of the molar value. Structures can show the parent of a compound that is named as a salt.
PARAMETER: pEC50

Solved entries (count: 3):
| COMPOUND | PARAMETER | RESULT |
| --- | --- | --- |
| CCc1c(CCN(C)CC(=O)O)cccc1-c1cnc(-c2ccc(CC(C)C)c(C#N)c2)nc1 [Example 34, trifluoroacetate] | pEC50 | ≥ 5.00 |
| CCc1c(CCN(C)CC(=O)O)cccc1-c1cnc(-c2ccc(OC(C)C)c(Cl)c2)nc1 | pEC50 | ≥ 5.00 |
| CCc1c(CCN2CCCC(C(=O)O)C2)cccc1-c1cnc(-c2ccc(CC(C)C)c(C#N)c2)nc1 (centres unmarked) | pEC50 | ≥ 5.00 |

Give pEC50 for each listed item.
1. CCc1c(CCN2CC(C(=O)O)C2)cccc1-c1cnc(-c2ccc(OC(C)C)c(Cl)c2)nc1
2. CCc1c(CCN(C)CCC(=O)O)cccc1-c1cnc(-c2ccc(CC(C)C)c(C#N)c2)nc1
3. CCc1c(CCN2CC(C(=O)O)C2)cccc1-c1cnc(-c2ccc(CC(C)C)c(C#N)c2)nc1
4. CCc1c(CNCCC(=O)O)cccc1-c1cnc(-c2ccc(OC(C)C)c(C(F)(F)F)c2)nc1
5. CCc1c(CCN2CCC[C@H](C(=O)O)C2)cccc1-c1cnc(-c2ccc(OC(C)C)c(Cl)c2)nc1

A.
["≥ 5.70", "≥ 5.00", "≥ 5.00", "≥ 5.70", "≥ 5.00"]

###

Target: S1P3 (human Endothelial Differentiation G-protein Coupled Receptor 3 (EDG3)) (Homo sapiens)
Assay: S1P3 GeneBlazer assay
Conditions: agonist, EDG3-Ga15-NFAT-bla HEK 293T cells, beta-lactamase FRET readout
Counter-ions that a name gives are not always drawn.
PARAMETER: EC50

Previously resolved entries follow.
| COMPOUND | EC50 |
| --- | --- |
| CCc1c(CCN2CCC(C(=O)O)C2)cccc1-c1cnc(-c2ccc(OC(C)C)c(Cl)c2)nc1 (stereo not shown) [Example 29] | ≤ 2 µM |
| CCc1c(CN2CC(C(=O)O)C2)cccc1-c1cnc(-c2ccc(OC(C)C)c(C(F)(F)F)c2)nc1 [Example 11] | ≤ 10 µM |
| CCc1c(CCN2CCCC(C(=O)O)C2)cccc1-c1cnc(-c2ccc(OC(C)C)c(Cl)c2)nc1 (stereo not shown) [Example 31] | ≤ 10 µM |
| CCc1c(CCN2CCC(C(=O)O)CC2)cccc1-c1cnc(-c2ccc(OC(C)C)c(Cl)c2)nc1 [Example 33] | ≤ 2 µM |
| CCc1c(CCN2CCC(C(=O)O)CC2)cccc1-c1cnc(-c2ccc(CC(C)C)c(C#N)c2)nc1 [Example 40] | ≤ 2 µM |

Value sought for every listed compound: EC50.
1. CCc1c(CN2CCC(C(=O)O)CC2)cccc1-c1cnc(-c2ccc(OC(C)C)c(C(F)(F)F)c2)nc1 [Example 13]
2. CCc1c(-c2cnc(-c3ccc(OC(C)C)c(Cl)c3)nc2)cccc1C1CCN(CCC(=O)O)CC1 [Example 15, trifluoroacetate]
3. CCc1c(CCN2CCC[C@H](C(=O)O)C2)cccc1-c1cnc(-c2ccc(CC(C)C)c(C#N)c2)nc1 [Example 39]
4. CCc1c(CCN2CC[C@H](C(=O)O)C2)cccc1-c1cnc(-c2ccc(OC(C)C)c(Cl)c2)nc1 [Example 30]
5. CCc1c(CCN2CCC(C(=O)O)C2)cccc1-c1cnc(-c2ccc(CC(C)C)c(C#N)c2)nc1 (stereo not shown) [Example 37]

A.
1. ≤ 10 µM
2. ≤ 10 µM
3. ≤ 10 µM
4. ≤ 2 µM
5. ≤ 10 µM
